assay: AUC (0 to infinity) in C57BL/6J mouse at 10 mg/kg, iv by HPLC analysis; format: ADME, organism-based; design: dose 10 mg/kg, time infinity, route intravenous; details: in vivo

| molecule | unit-label | AUC(0-inf) |
| --- | --- | --- |
| CCC(CC)(c1ccc(OCCCO)c(C)c1)c1ccc(OCC(O)C(C)(C)C)c(OCC(O)C(C)(C)C)c1 (stereo unspecified) | ng·h/mL | 32600 |

* * *

The reader will find reported inhibition at 0.5 µM values listed item by item below.
experiment: Antifibrotic activity against TGFbeta1 stimulated rat LTC-14 cells assessed as inhibition of collagen 1 synthesis at 0.5 uM after 24 hrs by ELISA relative to calcipotriol; format: functional; details: LTC-14, 24 h

| compound | inhibition at 0.5 µM |
| --- | --- |
| CCC(CC)(c1ccc(OS(=O)(=O)c2ccc(C)cc2)c(C)c1)c1ccc(OCC(=O)C(C)(C)C)c(OCC(=O)C(C)(C)C)c1 | 85% |
| CCC(CC)(c1ccc(OS(=O)(=O)c2ccccc2)c(C)c1)c1ccc(OCC(O)C(C)(C)C)c(OCC(O)C(C)(C)C)c1 (stereo not drawn) | 23% |
| CCC(CC)(c1ccc(OCC(O)CO)c(C)c1)c1ccc(OCC(O)C(C)(C)C)c(OCC(O)C(C)(C)C)c1 (stereo not drawn) | 147% |
| CCC(CC)(c1ccc(OCCCCCCO)c(C)c1)c1ccc(OCC(O)C(C)(C)C)c(OCC(O)C(C)(C)C)c1 (stereo not drawn) | 74% |
| CCC(CC)(c1ccc(OS(C)(=O)=O)c(C)c1)c1ccc(OCC(O)C(C)(C)C)c(OCC(O)C(C)(C)C)c1 (stereo not drawn) | 8% |
| CCC(CC)(c1ccc(OCCCCCO)c(C)c1)c1ccc(OCC(O)C(C)(C)C)c(OCC(O)C(C)(C)C)c1 (stereo not drawn) | 133% |
| CCC(CC)(c1ccc(OCC(O)CO)c(C)c1)c1ccc(OCC(O)C(C)(C)C)c(C)c1 (stereo not drawn) [LG-190178] | 97% |
| CCC(CC)(c1ccc(OCCO)c(C)c1)c1ccc(OCC(O)C(C)(C)C)c(OCC(O)C(C)(C)C)c1 (stereo not drawn) | 128% |

* * *

experiment: AUC (0 to infinity) in C57BL/6J mouse at 20 mg/kg, po by HPLC analysis; assay type: ADME, organism-based; design: dose 20 mg/kg, route oral, time infinity; settings: in vivo

| compound | AUC(0-inf) |
| --- | --- |
| CCC(CC)(c1ccc(OCCCO)c(C)c1)c1ccc(OCC(O)C(C)(C)C)c(OCC(O)C(C)(C)C)c1 (stereo unspecified) | 20600 ng·h/mL |

* * *

assay: MRT in C57BL/6J mouse at 20 mg/kg, po by HPLC analysis; assay type: ADME, organism-based; conditions: in vivo
value-kind: MRT (h)

| compound | result-value |
| --- | --- |
| CCC(CC)(c1ccc(OCCCO)c(C)c1)c1ccc(OCC(O)C(C)(C)C)c(OCC(O)C(C)(C)C)c1 (stereo unspecified) | 6.59 |

* * *

assay: Half life in C57BL/6J mouse at 10 mg/kg, iv by HPLC analysis; format: ADME, organism-based; conditions: in vivo

| compound | half-life (h) |
| --- | --- |
| CCC(CC)(c1ccc(OCCCO)c(C)c1)c1ccc(OCC(O)C(C)(C)C)c(OCC(O)C(C)(C)C)c1 (stereo unspecified) | 2.66 |
